Target: HLA-A*23:01
Assay: IEDB peptide-MHC binding, purified MHC/direct/fluorescence; filed as Kd, often an IC50 or EC50 that approximates it; bounds were set here for any values at or beyond the usual limits of such assays
Details: source organism: Rio Mearim virus
parameter.measured: Kd

> print(dat)
   seq.string  recorded.result
1   DWMERIEDF          ≥ 20 µM

---

Biological target: HLA-B*83:01
Test: IEDB peptide-MHC binding, purified MHC/competitive/fluorescence; filed as Kd, often an IC50 or EC50 that approximates it; bounds were set here for any values at or beyond the usual limits of such assays
Conditions: source organism: dengue virus type 2
pKd: −log10 of the molar value.
parameter.measured: pKd

> print(dat)
   seq.string  recorded.result
1   SEMGANFKA           ≤ 5.30

The values you see were collected from the Immune Epitope Database (IEDB).
